Ref: the supplement of paper PMC9170038

System: MS2 coat protein
Method: apparent KD of MS2 coat protein; designed switch direction (-1 OFF switch, 1 ON switch): -1; higher = weaker reporter binding
Measurement Context: Eterna round: R95; input ligand: microRNA oligo, concentration not stated

{"Input Sequence": "GUGUGCAGAGGAUAUACAGAGGAAAAGAAGAAAGAAGAGGGACAUGAGGAUCACCCAUGUAGAAGGCUGAGUGU [Excluse me!! 24 - Jieux - Exclusion 2] (puzzle: Exclusion 2)", "apparent KD of MS2 coat protein / nM": 30.4}
{"Input Sequence": "UCGGCGCGAGGAUAUGCGGCUUGUGCUUCGGGCCCUCGCGUACAUGAGGAUCACCCAUGUAGAAGGCGCGCCGC [Apr-15 SS2-44] (puzzle: Exclusion 2)", "apparent KD of MS2 coat protein / nM": 53.8}
{"Input Sequence": "CUUUUGUGAGGAUAUUAGUAGUAAAUAAAUAAAUUUACUACUGAGAAGGCACAUGAGGAUCACCCAUGUUCCUC [salish99_ex4_r3_060] (puzzle: Exclusion 4)", "apparent KD of MS2 coat protein / nM": 33.7}
